# assay comment: Pharmacokinetics, intravenous
# Format: in vivo, Beagle dogs
# run conditions: both sexes, Beagle, dog, plasma, 3 mg/kg, read-out: T1/2 (converted)
endpoint name: half-life (h)

INSERT INTO results (smiles_data, endpoint_name, readout_value) VALUES
  ('CN(Cc1nc2c(N3CCOCC3)nc(-c3ccc(N)cc3)nc2n1C)c1ncc(C(=O)NO)cn1.CS(=O)(=O)O', 'half-life', 8.47);

###

# target under test: CYP3A4 (Homo sapiens, UniProt P08684)
# Construct: human liver microsomal cytochrome P450 isoenzymes; from tissue; host or cells: human liver microsomes
# Sequence (P08684 whole entry): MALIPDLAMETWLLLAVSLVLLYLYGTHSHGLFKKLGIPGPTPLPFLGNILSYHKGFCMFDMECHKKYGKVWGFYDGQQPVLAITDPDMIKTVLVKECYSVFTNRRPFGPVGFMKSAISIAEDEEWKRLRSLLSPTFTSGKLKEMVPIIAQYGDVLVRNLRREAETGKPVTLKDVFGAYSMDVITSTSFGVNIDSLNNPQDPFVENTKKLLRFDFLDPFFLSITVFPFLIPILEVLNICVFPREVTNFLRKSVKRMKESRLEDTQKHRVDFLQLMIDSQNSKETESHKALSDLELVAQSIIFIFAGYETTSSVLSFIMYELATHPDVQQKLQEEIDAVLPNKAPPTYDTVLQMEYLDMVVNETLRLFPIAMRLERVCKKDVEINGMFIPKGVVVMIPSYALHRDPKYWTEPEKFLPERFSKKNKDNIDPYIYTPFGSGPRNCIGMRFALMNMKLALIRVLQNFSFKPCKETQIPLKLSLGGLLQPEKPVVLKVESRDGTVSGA
# assay comment: CYP inhibition, human liver microsomes
# Assay type: in vitro ADME
# run conditions: midazolam as the substrate
endpoint name: IC50

INSERT INTO measurements (smiles_data, target_under_test, readout_value) VALUES
  ('CN(Cc1nc2c(N3CCOCC3)nc(-c3ccc(N)cc3)nc2n1C)c1ncc(C(=O)NO)cn1.CS(=O)(=O)O', 'CYP3A4 (Homo sapiens, UniProt P08684)', '> 10 µM');

###

# target under test: UniProtKB O15379
# Sequence (O15379 whole entry): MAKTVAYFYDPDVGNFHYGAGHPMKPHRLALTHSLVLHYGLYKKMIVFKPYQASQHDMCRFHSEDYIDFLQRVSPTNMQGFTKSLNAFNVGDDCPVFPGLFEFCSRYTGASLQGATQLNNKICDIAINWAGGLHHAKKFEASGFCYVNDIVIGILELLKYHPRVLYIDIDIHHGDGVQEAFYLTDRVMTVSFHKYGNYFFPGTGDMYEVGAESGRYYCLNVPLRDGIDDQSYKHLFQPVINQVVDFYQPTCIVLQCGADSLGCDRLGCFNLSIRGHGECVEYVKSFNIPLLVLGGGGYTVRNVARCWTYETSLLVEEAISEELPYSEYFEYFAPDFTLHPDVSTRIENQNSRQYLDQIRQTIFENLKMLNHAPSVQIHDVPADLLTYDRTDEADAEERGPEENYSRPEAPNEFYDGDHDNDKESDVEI
# Sequence (Q9Y618 395-489 partner limits assumed): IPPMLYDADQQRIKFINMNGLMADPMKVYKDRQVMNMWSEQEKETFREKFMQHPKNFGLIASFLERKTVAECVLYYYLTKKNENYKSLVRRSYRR
pIC50: −log10 of the molar value.
endpoint name: pIC50

INSERT INTO assay_data (smiles_data, endpoint_name, readout_value) VALUES
  ('CN(Cc1nc2c(N3CCOCC3)nc(-c3ccc(N)cc3)nc2n1C)c1ncc(C(=O)NO)cn1.CS(=O)(=O)O', 'pIC50', 8.77);

###

Protein target, amino acids: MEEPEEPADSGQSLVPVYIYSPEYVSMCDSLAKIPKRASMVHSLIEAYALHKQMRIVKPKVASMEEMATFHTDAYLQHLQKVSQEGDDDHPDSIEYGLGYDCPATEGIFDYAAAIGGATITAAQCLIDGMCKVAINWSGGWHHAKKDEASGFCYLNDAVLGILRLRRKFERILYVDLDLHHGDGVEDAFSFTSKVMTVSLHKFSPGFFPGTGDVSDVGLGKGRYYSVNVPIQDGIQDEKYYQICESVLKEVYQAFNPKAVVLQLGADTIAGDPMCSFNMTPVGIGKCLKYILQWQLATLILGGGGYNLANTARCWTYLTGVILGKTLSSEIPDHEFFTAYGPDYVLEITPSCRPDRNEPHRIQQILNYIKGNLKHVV
pIC50: −log10 of the molar value.
endpoint name: pIC50

INSERT INTO measurements (smiles_data, readout_value) VALUES
  ('CN(Cc1nc2c(N3CCOCC3)nc(-c3ccc(N)cc3)nc2n1C)c1ncc(C(=O)NO)cn1.CS(=O)(=O)O', 8.42);

###

# assay comment: Metabolite profiling in plasma, bile, urine, feces
# Format: in vivo, SD rats
# run conditions: females, 0 to 168 hours
endpoint name: amount in feces, % of administered dose (%)

INSERT INTO measurements (smiles_data, endpoint_name, units, readout_value) VALUES
  ('CN(Cc1nc2c(N3CCOCC3)nc(-c3ccc(N)cc3)nc2n1C)c1ncc(C(=O)NO)cn1.CS(=O)(=O)O', 'amount in feces, % of administered dose', '%', 0.84),
  ('CC(=O)Nc1ccc(-c2nc(N3CCOCC3)c3nc(CN(C)c4ncc(C(N)=O)cn4)n(C)c3n2)cc1', 'amount in feces, % of administered dose', '%', 30.10);

###

# assay comment: Pharmacokinetics in plasma and tumor, HCT116 tumor-bearing mice
# Format: in vivo, nude mice
# run conditions: nude, mouse, tumor, iv, 10 mg/kg, single i.v. 10 mg/kg; read-out: elimination half-life (T1/2) in tumor (converted)
endpoint name: half-life (h)

INSERT INTO measurements (smiles_data, units, readout_value) VALUES
  ('CN(Cc1nc2c(N3CCOCC3)nc(-c3ccc(N)cc3)nc2n1C)c1ncc(C(=O)NO)cn1.CS(=O)(=O)O', 'h', 45.3);

###

# assay comment: in vivo
# run conditions: beagle, dog
endpoint name: NOAEL

INSERT INTO assay_data (molecule, readout_value) VALUES
  ('CN(Cc1nc2c(N3CCOCC3)nc(-c3ccc(N)cc3)nc2n1C)c1ncc(C(=O)NO)cn1.CS(=O)(=O)O [PM]', '< 0.3 mg/kg');

###

# assay comment: Pharmacokinetics, intravenous
# Format: in vivo, SD rats
# run conditions: both sexes, SD, rat, plasma, iv, 3 mg/kg; read-out: plasma clearance (CL)
endpoint name: clearance (mL/min/kg)

INSERT INTO measurements (compound, endpoint_name, readout_value) VALUES
  ('CN(Cc1nc2c(N3CCOCC3)nc(-c3ccc(N)cc3)nc2n1C)c1ncc(C(=O)NO)cn1.CS(=O)(=O)O [PM]', 'clearance', 205);

###

# assay comment: Pharmacokinetics and tissue distribution in Ighmyc mice
# Assay type: in vivo
# run conditions: Ighmyc (Eμ-myc), mouse, plasma, iv; single i.v. 5 mg/kg; read-out: T1/2 in plasma (converted)
# From the text: In B cell-related tumors, the mechanism of disease often involves the translocation of the MYC oncogene to the immunoglobulin promoter region, leading to its hyperactivation. The translocation of the MYC gene to the IGH enhancer (t(8;14) (q24;q32)) is a molecular hallmark of Burkitt lymphoma. The Ighmyc (Eμ-myc) mouse model successfully mimics this pathogenic mechanism by translocating the MYC oncogene to the immunoglobulin μ enhancer. […]
endpoint name: half-life (h)

INSERT INTO results (smiles_data, readout_value) VALUES
  ('CN(Cc1nc2c(N3CCOCC3)nc(-c3ccc(N)cc3)nc2n1C)c1ncc(C(=O)NO)cn1.CS(=O)(=O)O', 12.2);

###

# assay comment: Pharmacokinetics in plasma and tumor, HCT116 tumor-bearing mice
# Type: in vivo, nude mice
# run conditions: nude, mouse, plasma, iv, 10 mg/kg, single i.v. 10 mg/kg; read-out: elimination half-life (T1/2) in plasma (converted)
endpoint name: half-life (h)

INSERT INTO assay_data (smiles_data, readout_value) VALUES
  ('CN(Cc1nc2c(N3CCOCC3)nc(-c3ccc(N)cc3)nc2n1C)c1ncc(C(=O)NO)cn1.CS(=O)(=O)O', 1.21);

###

# assay comment: Metabolic stability in liver microsomes
# Type: in vitro ADME
# run conditions: human, 1 µM, NADPH, 37°C
# Experimental: The metabolic stability of Purinostat Mesylate was evaluated in CD-1 mice, SD rats, Beagle dogs, crab-eating monkeys, and human liver microsomes. Under conditions of 37°C, 1 µM of Purinostat Mesylate was incubated with liver microsomes from the five species mentioned above, supplemented with a NADPH regeneration system, for varying durations up to 60 minutes. The concentration of Purinostat Mesylate in the resulting samples was analyzed using LC/MS/MS.
endpoint name: half-life at 1 µM

INSERT INTO results (smiles_data, readout_value) VALUES
  ('CN(Cc1nc2c(N3CCOCC3)nc(-c3ccc(N)cc3)nc2n1C)c1ncc(C(=O)NO)cn1.CS(=O)(=O)O', '> 3.1 h');

###

# assay comment: Fertility, embryo and fetal developmental toxicity test
# Design: species or system SD rats
# run conditions: both sexes, SD, rat, in vivo, intravenous
endpoint name: NOAEL (mg/kg)

INSERT INTO measurements (smiles_data, readout_value) VALUES
  ('CN(Cc1nc2c(N3CCOCC3)nc(-c3ccc(N)cc3)nc2n1C)c1ncc(C(=O)NO)cn1.CS(=O)(=O)O', 3);

###

# assay comment: Metabolic stability in liver microsomes
# Format: in vitro ADME
# run conditions: monkey, read-out: liver intrinsic clearance (CLint)
endpoint name: CLint scaled at 1 µM (mL/min/kg)

INSERT INTO assay_data (smiles_data, readout_value) VALUES
  ('CN(Cc1nc2c(N3CCOCC3)nc(-c3ccc(N)cc3)nc2n1C)c1ncc(C(=O)NO)cn1.CS(=O)(=O)O', 598);

###

# assay comment: Plasma protein binding, equilibrium dialysis
# Assay type: in vitro ADME
# run conditions: human, 2 µM, read-out: plasma protein binding rate (converted)
endpoint name: fraction unbound at 2 µM

INSERT INTO results (smiles_data, readout_value) VALUES
  ('CN(Cc1nc2c(N3CCOCC3)nc(-c3ccc(N)cc3)nc2n1C)c1ncc(C(=O)NO)cn1.CS(=O)(=O)O', 0.1);

###

# assay comment: Pharmacokinetics, intravenous
# Format: in vivo, SD rats
# run conditions: both sexes, SD, rat, plasma, iv, 3 mg/kg; read-out: Vdss
endpoint name: Vd

INSERT INTO measurements (smiles_data, endpoint_name, readout_value) VALUES
  ('CN(Cc1nc2c(N3CCOCC3)nc(-c3ccc(N)cc3)nc2n1C)c1ncc(C(=O)NO)cn1.CS(=O)(=O)O', 'Vd', '1.13 L/kg');

###

# target under test: CYP2B6 (Homo sapiens)
# Sequence (P20813 whole entry): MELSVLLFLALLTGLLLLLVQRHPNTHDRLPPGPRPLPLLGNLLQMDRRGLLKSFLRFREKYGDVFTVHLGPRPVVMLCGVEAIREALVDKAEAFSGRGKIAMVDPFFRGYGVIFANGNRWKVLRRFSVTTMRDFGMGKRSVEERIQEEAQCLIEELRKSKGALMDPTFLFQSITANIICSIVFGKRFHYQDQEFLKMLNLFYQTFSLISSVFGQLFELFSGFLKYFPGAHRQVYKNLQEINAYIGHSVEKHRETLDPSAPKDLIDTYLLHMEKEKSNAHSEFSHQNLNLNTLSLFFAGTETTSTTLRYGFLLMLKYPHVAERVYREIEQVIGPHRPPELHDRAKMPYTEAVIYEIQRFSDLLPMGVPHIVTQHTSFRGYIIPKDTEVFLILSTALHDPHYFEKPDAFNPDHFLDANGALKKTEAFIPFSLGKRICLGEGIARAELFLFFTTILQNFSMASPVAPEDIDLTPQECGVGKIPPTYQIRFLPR
endpoint name: IC50

INSERT INTO assay_data (compound, target_under_test, endpoint_name, readout_value) VALUES
  ('CN(Cc1nc2c(N3CCOCC3)nc(-c3ccc(N)cc3)nc2n1C)c1ncc(C(=O)NO)cn1.CS(=O)(=O)O [PM]', 'CYP2B6 (Homo sapiens)', 'IC50', '> 10 µM');

###

# assay comment: Pharmacokinetics, intravenous
# Format: in vivo, SD rats
# run conditions: both sexes, SD, rat, plasma, iv, 1 mg/kg; read-out: plasma clearance (CL)
endpoint name: clearance (mL/min/kg)

INSERT INTO assay_data (smiles_data, endpoint_name, units, readout_value) VALUES
  ('CN(Cc1nc2c(N3CCOCC3)nc(-c3ccc(N)cc3)nc2n1C)c1ncc(C(=O)NO)cn1.CS(=O)(=O)O', 'clearance', 'mL/min/kg', 301);
